Test system: H929 multiple myeloma tumor line
Assay: In vitro cytotoxicity, MTT assay (Example B, Method A)
Type: cell-based
Settings: H929 cells, 48 hours exposure, read-out: C50
quantity.kind: pIC50
Just so you know, pIC50 here is -log10 of the concentration in molar units; reply with that number alone.

Which measured pIC50 value corresponds to CC(C)(COc1ccnc2sccc12)CC1Cc2ccccc2C12CCC(Nc1cccc(Cl)c1)(C(=O)O)CC2 (single isomer, unassigned) ?
4.52

Which measured pIC50 value corresponds to CC(O)c1ccc2c(c1)[C@]1(CC[C@@](Nc3cccc(Cl)c3)(C(=O)O)CC1)[C@@H](C[C@@H](C)COc1ccnc3c1[C@H](C)CC[C@H]3F)C2 (single isomer, unassigned) [Example 864] ?
6.74

Which measured pIC50 value corresponds to C[C@@H]1CCCc2nccc(OCC(F)CC3Cc4ccccc4[C@]34CC[C@@](Nc3cccc(Cl)c3)(C(=O)O)CC4)c21 (single isomer, unassigned) [Example 509] ?
6.00

Which measured pIC50 value corresponds to C[C@@H](COc1ccnc2c1C(F)CCC2)C[C@H]1Cc2ccccc2[C@]12CC[C@@](Nc1cccc(Cl)c1)(C(=O)O)CC2 (single isomer, unassigned) [Example 685] ?
5.84

Which measured pIC50 value corresponds to C[C@@H]1CCCc2nccc(OCC(F)CC3Cc4ccccc4[C@]34CC[C@@](Nc3cccc(Cl)c3)(C(=O)O)CC4)c21 (single isomer, unassigned) [Example 508] ?
5.44
